Biological target: T1, human LAG-3 expressed on cells (human, UniProt P18627 23-525)
T1 construct: whole, on cells; Treated as one protein; the host cell is named under assay; also called LAG-3-expressing CHO cells; LAG-3-transfected CHO cells
T1 sequence (looked up): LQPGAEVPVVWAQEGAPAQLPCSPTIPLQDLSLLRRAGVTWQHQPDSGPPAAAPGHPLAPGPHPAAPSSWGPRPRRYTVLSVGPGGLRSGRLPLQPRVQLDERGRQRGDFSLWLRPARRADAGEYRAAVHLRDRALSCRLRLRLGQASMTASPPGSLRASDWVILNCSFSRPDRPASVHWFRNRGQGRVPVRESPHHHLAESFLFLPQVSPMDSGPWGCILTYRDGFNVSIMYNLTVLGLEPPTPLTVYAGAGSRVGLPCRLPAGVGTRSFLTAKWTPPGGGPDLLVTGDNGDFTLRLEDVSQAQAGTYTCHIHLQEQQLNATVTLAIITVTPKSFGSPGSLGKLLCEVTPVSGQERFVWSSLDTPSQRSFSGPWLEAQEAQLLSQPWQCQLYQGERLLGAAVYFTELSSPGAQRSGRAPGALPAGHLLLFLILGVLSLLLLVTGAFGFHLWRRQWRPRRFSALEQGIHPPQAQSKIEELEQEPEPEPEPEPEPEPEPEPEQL
Experiment: rank of the clone by the competition binding data (test mAb against FITC-labeled murine BAP050 on LAG-3-expressing CHO cells), curve position relative to the chimeric mAb in two experiments
Method: Incubations with the mAb mixtures having different concentration ratios of test mAb to labeled mAb was at 4° C. for 30 min. […] The experiment was performed twice. Such a ranking system was used in FIG. 6.

BINDER	Ranking, Compet. data
BAP050-hum02 (antibody, human IgG4 S228P, kappa, V domains shown, humanized IgG4(S228P)/kappa, transient CHO supernatant; also called humanized clone No. 02) VH: EVQLVQSGAEVKKPGATVKISCKVSGFTLTNYGMNWVRQAPGQGLEWMGWINTDTGEPTYADDFKGRFVFSLDTSVSTAYLQICSLKAEDTAVYYCARNPPYYYGTNNAEAMDYWGQGTTVTVSS VL: DIQMTQSPSSLSASVGDRVTITCSSSQDISNYLNWYQQKPGKAPKLLIYYTSTLHLGIPPRFSGSGYGTDFTLTINNIESEDAAYYFCQQYYNLPWTFGQGTKVEIKR	1
BAP050-hum20 (antibody, human IgG4 S228P, kappa, V domains shown, humanized IgG4(S228P)/kappa, transient CHO supernatant) VH: QVQLVQSGAEVKKPGASVKVSCKASGFTLTNYGMNWVRQARGQRLEWIGWINTDTGEPTYADDFKGRFVFSLDTSVSTAYLQICSLKAEDTAVYYCARNPPYYYGTNNAEAMDYWGQGTTVTVSS VL: DIVMTQTPLSLPVTPGEPASISCSSSQDISNYLNWYQQKPGQAPRLLIYYTSTLHLGIPDRFSGSGSGTDFTLTISRLEPEDFAVYYCQQYYNLPWTFGQGTKVEIKR	3
BAP050-hum06 (antibody, human IgG4 S228P, kappa, V domains shown, humanized IgG4(S228P)/kappa, transient CHO supernatant) VH: EVQLVQSGAEVKKPGATVKISCKVSGFTLTNYGMNWVRQAPGQGLEWMGWINTDTGEPTYADDFKGRFVFSLDTSVSTAYLQICSLKAEDTAVYYCARNPPYYYGTNNAEAMDYWGQGTTVTVSS VL: DIVMTQTPLSLPVTPGEPASISCSSSQDISNYLNWYQQKPGQAPRLLIYYTSTLHLGVPSRFSGSGSGTEFTLTISSLQPDDFATYYCQQYYNLPWTFGQGTKVEIKR	1
